System name: T1, recombinant soluble human GARP-TGFβ1 complex (human, UniProt Q14392 20-628; P01137 30-390)
T1 construct: co-expressed in HEK293E, purified by the Strep-Tag; TGFβ consists of LAP and mature TGFβ; also called shGARP-TGFβ; rhGARP-TGFβ
T1 sequence (Q14392 other isoform, or with tags, fused parts or gaps limits assumed, chain 1 of 2): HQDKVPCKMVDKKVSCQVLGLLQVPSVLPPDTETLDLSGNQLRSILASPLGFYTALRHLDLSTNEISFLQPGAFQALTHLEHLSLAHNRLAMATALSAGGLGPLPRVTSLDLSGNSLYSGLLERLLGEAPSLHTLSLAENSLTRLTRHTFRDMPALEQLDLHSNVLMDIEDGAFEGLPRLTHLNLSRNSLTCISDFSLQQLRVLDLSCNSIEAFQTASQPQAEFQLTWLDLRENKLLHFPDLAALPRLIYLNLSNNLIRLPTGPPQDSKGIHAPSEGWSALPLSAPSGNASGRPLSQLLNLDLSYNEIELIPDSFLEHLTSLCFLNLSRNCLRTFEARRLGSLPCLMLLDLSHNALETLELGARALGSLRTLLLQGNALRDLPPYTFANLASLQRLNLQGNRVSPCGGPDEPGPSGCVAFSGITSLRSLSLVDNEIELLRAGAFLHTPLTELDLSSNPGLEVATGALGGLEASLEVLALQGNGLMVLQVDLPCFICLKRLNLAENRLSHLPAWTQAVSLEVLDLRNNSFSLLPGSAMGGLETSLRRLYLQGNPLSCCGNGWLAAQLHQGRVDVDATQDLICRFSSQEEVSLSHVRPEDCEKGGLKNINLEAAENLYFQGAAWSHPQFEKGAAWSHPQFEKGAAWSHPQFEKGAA
T1 sequence (P01137 30-390 limits assumed, chain 2 of 2): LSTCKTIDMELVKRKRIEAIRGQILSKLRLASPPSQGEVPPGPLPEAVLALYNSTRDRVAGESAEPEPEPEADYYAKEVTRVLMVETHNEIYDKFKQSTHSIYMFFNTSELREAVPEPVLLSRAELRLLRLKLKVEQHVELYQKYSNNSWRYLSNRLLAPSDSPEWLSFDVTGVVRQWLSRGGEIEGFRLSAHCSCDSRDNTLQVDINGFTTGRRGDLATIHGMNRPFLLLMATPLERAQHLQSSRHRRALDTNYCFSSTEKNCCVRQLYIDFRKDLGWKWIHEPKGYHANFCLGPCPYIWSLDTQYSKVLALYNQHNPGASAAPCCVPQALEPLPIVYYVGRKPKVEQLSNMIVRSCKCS
Measurement protocol: SPR (Biacore), hGARP-TGFβ1 immobilised
Here the recorded koff is given for each entry.
Quick reminder: number only, in s⁻¹, skip the unit.

# example entries with known answers
koff lookup needed for LHG-10.3 (antibody, human IgG1, V domains shown, VK-shuffled variant of LHG-10, human IgG1) VH: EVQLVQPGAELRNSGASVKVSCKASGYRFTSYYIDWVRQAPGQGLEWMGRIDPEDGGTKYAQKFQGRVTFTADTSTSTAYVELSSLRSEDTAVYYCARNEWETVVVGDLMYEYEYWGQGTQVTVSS VL: DIQMTQSPSSLSASLGDRVTITCQASQSIVSYLAWYQQKPGQAPKLLIYGASRLQTGVPSRFSGSGSGTSFTLTISGLEAEDAGTYYCQQYASAPVTFGQGTGVELK , thanks.
6.38e-06

koff lookup needed for LHG-10 (antibody, human IgG1, V domains shown, llama-derived V regions in a full human IgG1) VH: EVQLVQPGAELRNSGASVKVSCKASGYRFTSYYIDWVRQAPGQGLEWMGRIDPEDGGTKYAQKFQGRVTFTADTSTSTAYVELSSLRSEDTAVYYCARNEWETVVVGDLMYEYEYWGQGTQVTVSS VL: DIQMTQSPTSLSASLGDRVTITCQASQSISSYLAWYQQKPGQAPKLLIYGASRLQTGVPSRFSGSGSGTSFTLTISGLEAEDAGTYYCQQYDSLPVTFGQGTKVELK , thanks.
3.12e-05

Moving on to another binder below.
koff lookup needed for LHG-10.4-D (antibody, human IgG1, V domains shown) VH: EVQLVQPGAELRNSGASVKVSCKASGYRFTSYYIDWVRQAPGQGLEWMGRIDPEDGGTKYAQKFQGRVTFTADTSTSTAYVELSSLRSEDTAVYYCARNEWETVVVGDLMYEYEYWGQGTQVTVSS VL: DIQMTQSPSSLSASLGDRVTITCQASQSISSYLAWYQQKPGQAPKLLIYGTSRLKTGVPSRFSGSGSGTSFTLTISGLEAEDAGTYYCQQYYSAPVTFGQGTKVELK , thanks.
1.21e-05
